Data origin, for the record: PubChem BioAssay AID720633

Target: Fibrinogen beta chain (Homo sapiens)
Assay: DD(E) binders in alternate-peptide displacement assay, confirmation, counter-screen for fibrin DD(E)-Tn7 binding project, biochemical, fluorescence polarization, human fibrin (AID 720633);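 note: 0% = median of compound sample wells and 100% = excess unlabeled Aha-Tn7 peptide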
Conditions: TRITC-Tn7 probe displacement, at 8.3 µM, stronger effect = higher value
The other results are listed elsewhere or left out.
experimental endpoint: inhibition (%)
Record the value in %, omitting the unit from your answer.

Enquiry: // inhibition lookup, key: `CCOc1ccc(Nc2oc(Cc3ccccc3)nc2C#N)cc1`
Return: -10.1

Enquiry: Then what about the compound OC(c1ccccc1)c1nc(-c2cnc3ccccc3c2)cs1 (configuration not stated) ?
Return: 3.54

Enquiry: Then what about the compound `COc1ccc(-c2nc(CCNC(=O)c3ccc(Br)o3)cs2)cc1` ?
Return: -3.63

Enquiry: Then what about the compound `CN1c2ccc(C=O)c3c(C=O)ccc(c23)N(C)C1(C)C` ?
Return: -6.98

Enquiry: Then what about the compound `C#CCNc1ccc(C(=O)OCC)cc1` ?
Return: 4.2

Enquiry: Then what about the compound COc1cccc(N2CC(NS(=O)(=O)c3cccs3)CC2=O)c1 (configuration not stated) ?
Return: -2.24

Enquiry: Then what about the compound `CN1C(=O)c2cccc3c(N)ccc(c23)C1=O` ?
Return: 8.6

Enquiry: Then what about the compound `Cn1c(CC(=O)NNC(=O)c2ccccc2F)nc2ccccc21` ?
Return: -5.95

Enquiry: Then what about the compound `COc1ccc(S(=O)(=O)c2c[nH]c(=S)[nH]c2=O)cc1Cl` ?
Return: -4.35

Enquiry: Then what about the compound `O=C(COC(=O)c1ccc([N+](=O)[O-])cc1Cl)NC(=O)c1ccccc1` ?
Return: 1.45

Enquiry: Then what about the compound `COc1cc(C(=S)N2CCOCC2)ccc1O` ?
Return: 6.48

Enquiry: Then what about the compound O=C(/C=C/c1ccccc1[N+](=O)[O-])NCC1CCCO1 (configuration not stated) ?
Return: 6.91

* * *

Please provide measured inhibition for the entries that follow.
Target: Fibrinogen beta chain (Homo sapiens)
Experiment: DD(E) binders in alternate-peptide displacement assay, confirmation, counter-screen for fibrin DD(E)-Tn7 binding project, biochemical, fluorescence polarization, human fibrin (AID 720633);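 note: 0% = median of compound sample wells and 100% = excess unlabeled Aha-Tn7 peptide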
Conditions: TRITC-Tn7 probe displacement, at 8.3 µM, stronger effect = higher value
The list shows a part of the results. Activity calls are given as the source filed them.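 Rule for the calls: active = inhibition above the cutoff, the mean of compounds lying between the control bounds plus 3 SD of those compounds (cut at about 17% in these data); inactive = the rest.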

Enquiry: // inhibition lookup, key: `Cc1nn(C)cc1N1C(=O)c2cccc3c(N)ccc(c23)C1=O`
Return: 1.67% (inactive)

Enquiry: Then what about the compound `Cc1cc2nc3c(=O)[nH]c(=O)nc-3n(C[C@H](O)[C@H](O)[C@H](O)CO)c2cc1C` ?
Return: 12.4% (inactive)

Enquiry: Then what about the compound `Oc1ccc2ccc3cccc[n+]3c2c1` ?
Return: -23.9% (inactive)

Enquiry: Then what about the compound `O=C(CSc1nnc(-c2ccccn2)n1-c1ccc(Cl)cc1)Nc1ccccc1-c1ccccc1` ?
Return: -2.23% (inactive)

Enquiry: Then what about the compound `Cc1nnc2n1N=C(c1ccc3c(c1)NC(=O)CO3)CS2` ?
Return: -7.74% (inactive)

Enquiry: Then what about the compound `Cc1cc2nc3c(=O)n(Cc4ccccc4)c(=O)[nH]c3nc2cc1N` ?
Return: -4.98% (inactive)
